Molecular target: Interleukin-1 receptor-associated kinase 1 (Homo sapiens, UniProt P51617)
Sequence (P51617 whole entry): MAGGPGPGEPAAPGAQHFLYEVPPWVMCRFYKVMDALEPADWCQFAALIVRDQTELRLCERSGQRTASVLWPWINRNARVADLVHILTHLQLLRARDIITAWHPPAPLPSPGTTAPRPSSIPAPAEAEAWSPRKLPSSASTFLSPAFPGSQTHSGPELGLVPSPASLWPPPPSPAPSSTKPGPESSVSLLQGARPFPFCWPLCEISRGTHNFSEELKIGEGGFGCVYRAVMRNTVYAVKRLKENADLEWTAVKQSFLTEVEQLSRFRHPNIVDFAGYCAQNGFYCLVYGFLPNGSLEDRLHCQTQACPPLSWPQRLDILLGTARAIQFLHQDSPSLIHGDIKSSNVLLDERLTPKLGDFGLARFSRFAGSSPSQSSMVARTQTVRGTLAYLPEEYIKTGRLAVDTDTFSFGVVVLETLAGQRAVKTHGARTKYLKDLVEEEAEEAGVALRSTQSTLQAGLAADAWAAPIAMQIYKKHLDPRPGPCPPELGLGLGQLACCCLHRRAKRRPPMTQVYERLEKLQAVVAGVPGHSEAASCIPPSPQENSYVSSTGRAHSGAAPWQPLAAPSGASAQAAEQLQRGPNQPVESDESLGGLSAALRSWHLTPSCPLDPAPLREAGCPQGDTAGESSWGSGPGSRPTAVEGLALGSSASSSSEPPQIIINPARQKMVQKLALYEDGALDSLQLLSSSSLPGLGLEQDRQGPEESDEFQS
Metric Name: IC50

For Interleukin-1 receptor-associated kinase 1 (Homo sapiens, UniProt P51617), provide IC50 of O=C(Nc1cnccc1-c1ccc(F)cc1)c1ccnc(Nc2ccc(F)cc2)n1 please.
> 2 µM

For Interleukin-1 receptor-associated kinase 1 (Homo sapiens, UniProt P51617), provide IC50 of N#Cc1ccc(Nc2nccc(C(=O)Nc3cnccc3-c3ccc(F)cc3)n2)cc1 please.
> 2 µM

###

A short record of pIC50 observed with UniProt P06239 follows.
Sequence (P06239 whole entry): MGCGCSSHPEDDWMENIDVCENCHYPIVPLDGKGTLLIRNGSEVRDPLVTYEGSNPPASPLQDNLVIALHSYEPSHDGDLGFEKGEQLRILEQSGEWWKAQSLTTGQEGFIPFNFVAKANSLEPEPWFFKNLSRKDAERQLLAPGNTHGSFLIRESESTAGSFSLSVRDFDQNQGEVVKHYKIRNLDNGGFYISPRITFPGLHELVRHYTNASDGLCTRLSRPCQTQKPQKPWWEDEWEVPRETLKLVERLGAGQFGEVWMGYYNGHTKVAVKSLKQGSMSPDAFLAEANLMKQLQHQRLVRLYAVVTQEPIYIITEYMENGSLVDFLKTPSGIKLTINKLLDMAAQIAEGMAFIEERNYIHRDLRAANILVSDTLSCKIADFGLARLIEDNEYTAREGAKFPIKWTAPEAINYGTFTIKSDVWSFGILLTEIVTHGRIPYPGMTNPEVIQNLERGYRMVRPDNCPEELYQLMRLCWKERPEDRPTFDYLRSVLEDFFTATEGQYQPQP
pIC50: −log10 of the molar value.

Given the entry N#Cc1ccc(Nc2nccc(C(=O)Nc3cnccc3-c3ccc(F)cc3)n2)cc1 , report its measured pIC50.
< 5.70

Given the entry O=C(Nc1cnccc1-c1ccc(F)cc1)c1ccnc(Nc2ccc(F)cc2)n1 , report its measured pIC50.
< 5.70
